Target: hyperactive mutant BKCa channels (hSlo G803D/N806K) stably expressed in AD 293 cells (Homo sapiens, UniProt Q12791, G856D/N859K)
Construct: expressed in transfected cells
Sequence (Q12791 whole entry G856D/N859K): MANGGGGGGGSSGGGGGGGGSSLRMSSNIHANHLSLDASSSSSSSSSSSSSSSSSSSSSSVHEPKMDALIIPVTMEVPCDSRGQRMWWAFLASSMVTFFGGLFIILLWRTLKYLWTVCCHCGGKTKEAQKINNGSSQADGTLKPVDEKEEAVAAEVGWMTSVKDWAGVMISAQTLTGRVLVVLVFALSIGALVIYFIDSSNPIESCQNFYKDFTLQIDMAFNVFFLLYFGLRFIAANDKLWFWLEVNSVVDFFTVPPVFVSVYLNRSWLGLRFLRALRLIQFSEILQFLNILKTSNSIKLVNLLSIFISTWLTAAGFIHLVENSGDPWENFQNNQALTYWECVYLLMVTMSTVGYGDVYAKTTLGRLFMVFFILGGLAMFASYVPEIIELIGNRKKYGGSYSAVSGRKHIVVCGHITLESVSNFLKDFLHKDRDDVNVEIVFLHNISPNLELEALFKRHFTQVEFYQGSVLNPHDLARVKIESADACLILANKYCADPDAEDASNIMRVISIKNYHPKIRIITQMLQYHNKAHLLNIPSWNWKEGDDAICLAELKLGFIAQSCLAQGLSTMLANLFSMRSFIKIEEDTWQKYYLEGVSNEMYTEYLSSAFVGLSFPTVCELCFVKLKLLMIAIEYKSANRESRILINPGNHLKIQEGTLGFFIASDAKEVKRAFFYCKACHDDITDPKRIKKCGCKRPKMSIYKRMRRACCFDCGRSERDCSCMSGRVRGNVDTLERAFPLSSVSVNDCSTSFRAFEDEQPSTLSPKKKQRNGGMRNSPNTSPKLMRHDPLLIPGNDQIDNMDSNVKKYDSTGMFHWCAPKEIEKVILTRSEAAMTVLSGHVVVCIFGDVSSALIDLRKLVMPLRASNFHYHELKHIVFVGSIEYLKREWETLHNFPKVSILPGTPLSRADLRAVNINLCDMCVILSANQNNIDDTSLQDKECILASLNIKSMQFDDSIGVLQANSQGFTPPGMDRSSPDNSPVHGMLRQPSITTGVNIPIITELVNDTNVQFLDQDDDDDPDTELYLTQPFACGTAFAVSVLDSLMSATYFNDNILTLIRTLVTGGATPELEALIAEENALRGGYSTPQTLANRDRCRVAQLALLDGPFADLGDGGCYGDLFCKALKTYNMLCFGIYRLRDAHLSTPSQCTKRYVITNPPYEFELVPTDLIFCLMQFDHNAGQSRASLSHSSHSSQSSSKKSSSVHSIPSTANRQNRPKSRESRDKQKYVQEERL
Experiment: Cell-based fluorescence assay (FluxOR Potassium Ion Channel Assay) of BKCa channel activation
Design: key: ratio of ΔRFU (RFU at 100 s − 20 s) to the same ΔRFU for vehicle
Conditions: 6 μM; normalized by vehicle
METRIC: Channel activity increase for 80 s (ΔRFU) at 6 μM

Known Channel activity increase for 80 s (ΔRFU) at 6 μM results, listed for orientation:
O=C(Nc1cccc(O)c1)c1sc(=S)n2c1[nH]c(=O)c1cc(Br)ccc12: 4.88
O=C(Nc1cccc(F)c1)c1sc(=S)n2c1[nH]c(=O)c1cc(Br)ccc12: 2.85
FC(F)(F)c1cc(NC(=S)Nc2ccc(Br)cc2-c2nn[nH]n2)cc(C(F)(F)F)c1 [NS11021, reference compound]: 1.86
O=C(Nc1cc(C(F)(F)F)cc(C(F)(F)F)c1)c1sc(=S)n2c1[nH]c(=O)c1cc(Br)ccc12: 2.28
Cc1ccc2c(=O)[nH]c3c(C(=O)Nc4ccccc4)sc(=S)n3c2c1: 1.06
O=C(Nc1ccccc1)c1sc(=S)n2c1[nH]c(=O)c1ccccc12: 1.03

I = NC(=O)c1sc(=S)n2c1[nH]c(=O)c1ccccc12
II = O=C(O)c1sc(=S)n2c1[nH]c(=O)c1ccccc12
Query: I'm curious whether I or II has the smaller Channel activity increase for 80 s (ΔRFU) at 6 μM number. Which is it? // respond with label for picked entry
Reply: I
(I: 0.96, II: 1.38)

----------
Molecular target: hyperactive mutant BKCa channels (hSlo G803D/N806K) stably expressed in AD 293 cells (Homo sapiens, UniProt Q12791, G856D/N859K)
Construct: expressed in transfected cells
Assay: Cell-based fluorescence assay (FluxOR Potassium Ion Channel Assay) of BKCa channel activation
Settings: 6 μM; first 4 s after channel stimulation
METRIC: Initial velocity of channel activation for 4 s (vi) at 6 μM (s⁻¹)

O=C(O)c1sc(=S)n2c1[nH]c(=O)c1ccccc12: 0.38
Cc1cccc(NC(=O)c2sc(=S)n3c2[nH]c(=O)c2cc(Br)ccc23)c1: 9.77
NC(=O)c1sc(=S)n2c1[nH]c(=O)c1ccccc12: 0.32
Cc1ccc2c(=O)[nH]c3c(C(=O)Nc4ccccc4)sc(=S)n3c2c1: 0.23
O=C(Nc1cccc(Cl)c1)c1sc(=S)n2c1[nH]c(=O)c1cc(Br)ccc12: 16.12
O=C(Nc1cc(C(F)(F)F)cc(C(F)(F)F)c1)c1sc(=S)n2c1[nH]c(=O)c1cc(Br)ccc12: 2.08

I = FC(F)(F)c1cc(NC(=S)Nc2ccc(Br)cc2-c2nn[nH]n2)cc(C(F)(F)F)c1 [NS11021, reference compound]
II = O=C(Nc1ccccc1)c1sc(=S)n2c1[nH]c(=O)c1cc(Br)ccc12
III = Cc1ccc2c(c1)c(=O)[nH]c1c(C(=O)Nc3ccccc3)sc(=S)n12
IV = Cc1ccc(NC(=O)c2sc(=S)n3c2[nH]c(=O)c2cc(Br)ccc23)cc1
V = Cc1ccccc1NC(=O)c1sc(=S)n2c1[nH]c(=O)c1cc(Br)ccc12
Query: Kindly order the items shown according to Initial velocity of channel activation for 4 s (vi) at 6 μM, from the highest value down. Response format: the labels, sorted as the prompt asks.
Reply: V, II, I, IV, III
(V: 9.40 s⁻¹, II: 5.51 s⁻¹, I: 1.63 s⁻¹, IV: 0.71 s⁻¹, III: 0.32 s⁻¹)

P = COc1cccc(NC(=O)c2sc(=S)n3c2[nH]c(=O)c2cc(Br)ccc23)c1
Q = O=C(Nc1ccccc1)c1sc(=S)n2c1[nH]c(=O)c1ccccc12
R = O=C(Nc1cccc(O)c1)c1sc(=S)n2c1[nH]c(=O)c1cc(Br)ccc12
Query: List by increasing Initial velocity of channel activation for 4 s (vi) at 6 μM. Response format: the labels, sorted as the prompt asks.
Reply: Q, R, P
(Q: 0.42 s⁻¹, R: 4.03 s⁻¹, P: 6.00 s⁻¹)

----------
Biological target: hyperactive mutant BKCa channels (hSlo G803D/N806K) stably expressed in AD 293 cells (Homo sapiens, UniProt Q12791, G856D/N859K)
Construct: expressed in transfected cells
Experiment: Cell-based fluorescence assay (FluxOR Potassium Ion Channel Assay) of BKCa channel activation
Set-up: key: ratio of ΔRFU (RFU at 100 s − 20 s) to the same ΔRFU for vehicle
Conditions: 6 μM; normalized by vehicle
METRIC: Channel activity increase for 80 s (ΔRFU) at 6 μM

O=C(Nc1ccccc1)c1sc(=S)n2c1[nH]c(=O)c1cc(Cl)ccc12: 1.18
Cc1ccc(NC(=O)c2sc(=S)n3c2[nH]c(=O)c2cc(Br)ccc23)cc1: 1.41
Cc1cccc(NC(=O)c2sc(=S)n3c2[nH]c(=O)c2cc(Br)ccc23)c1: 4.98
Cc1ccccc1NC(=O)c1sc(=S)n2c1[nH]c(=O)c1cc(Br)ccc12: 3.68
O=C(Nc1ccccc1)c1sc(=S)n2c1[nH]c(=O)c1ccc(Cl)cc12: 1.56

1 = O=C(Nc1cccc(OC(F)(F)F)c1)c1sc(=S)n2c1[nH]c(=O)c1cc(Br)ccc12
2 = Cc1ccc2c(c1)c(=O)[nH]c1c(C(=O)Nc3ccccc3)sc(=S)n12
Query: I'm curious whether 1 or 2 has the smaller Channel activity increase for 80 s (ΔRFU) at 6 μM number. Which is it? // respond with label for picked entry
Reply: 2
(2: 1.16, 1: 4.37)

----------
Biological target: hyperactive mutant BKCa channels (hSlo G803D/N806K) stably expressed in AD 293 cells (Homo sapiens, UniProt Q12791, G856D/N859K)
Construct: expressed in transfected cells
Assay: Cell-based fluorescence assay (FluxOR Potassium Ion Channel Assay) of BKCa channel activation
Conditions: 6 μM; first 4 s after channel stimulation
METRIC: Initial velocity of channel activation for 4 s (vi) at 6 μM (s⁻¹)

O=C(Nc1cccc(OC(F)(F)F)c1)c1sc(=S)n2c1[nH]c(=O)c1cc(Br)ccc12 [Compound 209]: 14.78

P = O=C(Nc1ccccc1)c1sc(=S)n2c1[nH]c(=O)c1cc(Cl)ccc12 [Compound 106]
Q = O=C(Nc1cccc(F)c1)c1sc(=S)n2c1[nH]c(=O)c1cc(Br)ccc12 [Compound 206]
Query: Could you point out whether the larger Initial velocity of channel activation for 4 s (vi) at 6 μM belongs to P or to Q ? // respond with label for picked entry
Reply: Q

----------
Molecular target: hyperactive mutant BKCa channels (hSlo G803D/N806K) stably expressed in AD 293 cells (Homo sapiens, UniProt Q12791, G856D/N859K)
Assay: Cell-based fluorescence assay (FluxOR Potassium Ion Channel Assay) of BKCa channel activation
Conditions: fit of dose-response curve of initial rates; read-out: Apparent EC50 based on vi
pEC50: −log10 of the molar value.
METRIC: pEC50

Known pEC50 results, listed for orientation:
O=C(Nc1cccc(C(F)(F)F)c1)c1sc(=S)n2c1[nH]c(=O)c1cc(Br)ccc12: 5.54
O=C(O)c1sc(=S)n2c1[nH]c(=O)c1ccccc12: 4.90

A = Cc1ccccc1NC(=O)c1sc(=S)n2c1[nH]c(=O)c1cc(Br)ccc12
B = O=C(Nc1ccccc1)c1sc(=S)n2c1[nH]c(=O)c1cc(Br)ccc12
Query: I'm curious whether A or B has the smaller pEC50 number. Which is it? // respond with label for picked entry
Reply: B

----------
Molecular target: BKCa channels (rat KCNMA, rSlo α) (Rattus norvegicus, UniProt Q62976)
Sequence (Q62976 whole entry): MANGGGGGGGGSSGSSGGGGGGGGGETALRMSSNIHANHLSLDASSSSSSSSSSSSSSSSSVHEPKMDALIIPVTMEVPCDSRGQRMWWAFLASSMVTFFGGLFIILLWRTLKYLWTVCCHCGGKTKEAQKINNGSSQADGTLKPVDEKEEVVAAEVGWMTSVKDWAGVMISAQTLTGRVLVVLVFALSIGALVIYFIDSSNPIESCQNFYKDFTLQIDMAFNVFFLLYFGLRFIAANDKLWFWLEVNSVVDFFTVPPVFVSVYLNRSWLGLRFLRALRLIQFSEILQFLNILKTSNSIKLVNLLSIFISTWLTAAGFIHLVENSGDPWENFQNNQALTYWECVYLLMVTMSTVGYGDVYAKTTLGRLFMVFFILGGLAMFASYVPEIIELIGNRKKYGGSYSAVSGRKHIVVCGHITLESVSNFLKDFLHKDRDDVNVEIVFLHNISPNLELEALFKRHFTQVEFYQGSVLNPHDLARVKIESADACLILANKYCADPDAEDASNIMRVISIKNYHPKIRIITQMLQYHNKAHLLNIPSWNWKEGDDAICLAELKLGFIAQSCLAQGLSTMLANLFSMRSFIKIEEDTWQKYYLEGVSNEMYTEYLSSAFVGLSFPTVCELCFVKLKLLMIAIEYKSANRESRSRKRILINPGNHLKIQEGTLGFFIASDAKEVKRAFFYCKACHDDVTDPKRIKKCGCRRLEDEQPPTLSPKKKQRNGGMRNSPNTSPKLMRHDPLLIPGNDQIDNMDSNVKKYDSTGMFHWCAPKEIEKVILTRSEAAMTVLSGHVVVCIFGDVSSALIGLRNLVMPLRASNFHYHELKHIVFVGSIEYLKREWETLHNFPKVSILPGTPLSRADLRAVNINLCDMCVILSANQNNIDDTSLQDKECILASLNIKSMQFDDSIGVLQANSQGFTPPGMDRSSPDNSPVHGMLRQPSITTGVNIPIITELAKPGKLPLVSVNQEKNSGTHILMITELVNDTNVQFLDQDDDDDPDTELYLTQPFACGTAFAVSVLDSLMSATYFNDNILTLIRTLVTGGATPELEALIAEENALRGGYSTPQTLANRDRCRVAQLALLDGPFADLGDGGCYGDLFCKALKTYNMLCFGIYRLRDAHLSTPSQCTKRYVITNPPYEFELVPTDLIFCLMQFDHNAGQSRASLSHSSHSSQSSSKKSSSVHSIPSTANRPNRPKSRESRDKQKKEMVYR
Assay: Macroscopic current recording, outside-out patch clamp, BKCa channels expressed in Xenopus oocytes
Conditions: 0.1-30 μM, 3 μM intracellular Ca2+; read-out: apparent EC50 of V1/2 shift (Hill equation)
METRIC: pEC50
Worth noting: pEC50 values are minus log10 of concentrations stated in mol/L.

Query: Need pEC50, item Cc1cccc(NC(=O)c2sc(=S)n3c2[nH]c(=O)c2cc(Br)ccc23)c1
Reply: 5.55

----------
Target: hyperactive mutant BKCa channels (hSlo G803D/N806K) stably expressed in AD 293 cells (Homo sapiens, UniProt Q12791, G856D/N859K)
Construct: expressed in transfected cells
Experiment: Cell-based fluorescence assay (FluxOR Potassium Ion Channel Assay) of BKCa channel activation
Details: compounds at 5 μM; n=3; vehicle 0.26
METRIC: Activity (ΔRFU normalized by activities of LDD175)

CCc1ccccc1NC(=O)c1sc(=S)n2c1[nH]c(=O)c1ccc(Cl)cc12 [TTQC-4]: 0.95
O=C(Nc1ccc(Br)cc1F)c1sc(=S)n2c1[nH]c(=O)c1ccc(Cl)cc12 [TTQC-26]: 0.49
O=C(O)c1ccc(Cl)c2c1[nH]c1c3ccc(C(F)(F)F)cc3oc12 [LDD175, reference compound]: 1.00
COC(=O)c1ccc2c(=O)[nH]c3c(C(=O)Nc4ccc(F)cc4F)sc(=S)n3c2c1 [TTQC-13]: 0.79
COC(=O)c1ccc2c(=O)[nH]c3c(C(=O)Nc4cccc(F)c4)sc(=S)n3c2c1 [TTQC-2]: 0.99
CCOC(=O)c1ccc(NC(=O)c2sc(=S)n3c2[nH]c(=O)c2ccc(Cl)cc23)cc1 [TTQC-3]: 0.96

P = O=C(c1sc(=S)n2c1[nH]c(=O)c1cc(Br)ccc12)N1CCCCC1 [TTQC-30]
Q = Cc1ccc(NC(=O)c2sc(=S)n3c2[nH]c(=O)c2cc(Br)ccc23)c(C)c1 [TTQC-10]
Query: Could you point out whether the larger Activity (ΔRFU normalized by activities of LDD175) belongs to P or to Q ? // respond with label for picked entry
Reply: Q
(Q: 0.83, P: 0.37)
